# System: ATP;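 further: ATP exposure 15 min at 22 °C before imaging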
# assay overview: switch fluorescence ratio, 500 uM ATP over buffer (Cy3 cluster intensity, sum of 5 cycles each) (fold (ratio)); higher = stronger signal-on switching upon ATP binding; sequences stand for … in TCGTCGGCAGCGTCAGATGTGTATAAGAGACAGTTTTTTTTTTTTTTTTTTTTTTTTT…TC
# measurement parameters: aptamer strand: ATP DNA aptamer (quencher-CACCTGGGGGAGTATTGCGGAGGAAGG + anchor), 100 nM annealed; ATP concentration: 500 uM
quantity kind: switch fluorescence ratio
The answer should be written as a number, with no unit following it.

Consider the reported switch fluorescence ratio for these sequences:
Looking up `CAAATTTGTC` , I found its switch fluorescence ratio recorded as 0.994

Lab note: measured switch fluorescence ratio of `TTACGGTAAC` was 2.05

Summary for this sequence, `CAGCTAGTCC` : switch fluorescence ratio is 1.18

Noted for `GGGCTTCTTG` : its switch fluorescence ratio reads 0.962

Notebook: `GCTTTTGGGG` , switch fluorescence ratio read as 1.03

Continuing:
Record `TAGGATTACT` , field switch fluorescence ratio: 1.02

Lab note: `CGGAAGTTGG` gave switch fluorescence ratio of 0.996
